# Tested on: rat adrenal angiotensin II receptors
# test_details: displacement of radioligand [^125 I]-SIAII specifically bound to rat adrenal angiotensin II receptors
# Type: binding
# recorded_conditions: 1E-5M competing agent, 60 min at 25° C., 10 µM
# % displacement of the labeled ligand listing for each entry below
Give the quantity in %, number only.

Indicate its recorded % displacement of the labeled ligand; the compound in question is CCCc1nc(NC(C)=O)sc1Cc1ccc(NC(=O)c2ccccc2S(=O)(=O)O)cc1 [Example 36] 84

Indicate its recorded % displacement of the labeled ligand; the compound in question is Cc1nc(C)c(Cc2ccc(NC(=O)c3ccccc3C(=O)O)cc2)s1 [Example 4] 58

Indicate its recorded % displacement of the labeled ligand; the compound in question is CCCc1nc(C)sc1Cc1ccc(NC(=O)c2ccccc2S(=O)(=O)O)cc1 [Example 11] 94

Indicate its recorded % displacement of the labeled ligand; the compound in question is CCCc1nc(CC(=O)OC)sc1Cc1ccc(NC(=O)c2ccccc2S(=O)(=O)O)cc1 [Example 26] 86

====

# Tested on: rat adrenal angiotensin II receptors
# test_details: displacement of radioligand [^125 I]-SIAII specifically bound to rat adrenal angiotensin II receptors
# Assay type: binding
# recorded_conditions: 1E-7M competing agent, 60 min at 25° C., 0.1 µM
parameter: % displacement of the labeled ligand (%)
Give the quantity in %, number only.

Below: 8 molecules and their reported % displacement of the labeled ligand.
CCCc1nc(N)sc1Cc1ccc(NC(=O)c2c(Cl)ccc(Cl)c2C(=O)O)cc1 : 9
CCCc1nc(C)sc1Cc1ccc(NC(=O)c2ccccc2S(=O)(=O)O)cc1 : 59
CCCc1nc(N)sc1Cc1ccc(NC(=O)c2ccccc2S(=O)(=O)O)cc1 : 27
CCCCCc1nc(C)sc1Cc1ccc(NC(=O)c2ccccc2S(=O)(=O)O)cc1 : 59
CCCc1nc(SCCCC(=O)OCC)sc1Cc1ccc(NC(=O)c2ccccc2S(=O)(=O)O)cc1 : 0
CCCc1nc(CNC(=O)OCC)sc1Cc1ccc(NC(=O)c2ccccc2S(=O)(=O)O)cc1 : 29
CCCCCc1nc(N)sc1Cc1ccc(NC(=O)c2ccccc2S(=O)(=O)O)cc1 : 44
CCCc1nc(NCC(=O)OC)sc1Cc1ccc(NC(=O)c2ccccc2S(=O)(=O)O)cc1 : 5

Give % displacement of the labeled ligand only, for CCCc1nc(COC)sc1Cc1ccc(NC(=O)c2ccccc2S(=O)(=O)O)cc1 , using rat adrenal angiotensin II receptors data. 55

====

# System: rat adrenal angiotensin II receptors
# test_details: displacement of radioligand [^125 I]-SIAII specifically bound to rat adrenal angiotensin II receptors
# Assay type: binding
# recorded_conditions: 1E-5M competing agent, 60 min at 25° C., 10 µM
# % displacement of the labeled ligand listing for each entry below
Give the quantity in %, number only.

Below: 4 compounds and their reported % displacement of the labeled ligand.
CCCCCc1nc(C)sc1Cc1ccc(NC(=O)c2ccccc2S(=O)(=O)O)cc1 : 88
CCCCCc1nc(N)sc1Cc1ccc(NC(=O)c2ccccc2S(=O)(=O)O)cc1 : 91
CCCc1nc(NCC(=O)OC)sc1Cc1ccc(NC(=O)c2ccccc2S(=O)(=O)O)cc1 : 89
CCCc1nc(SCCCC(=O)OCC)sc1Cc1ccc(NC(=O)c2ccccc2S(=O)(=O)O)cc1 : 79

Pending compound:
Indicate its recorded % displacement of the labeled ligand; the compound in question is CCOC(=O)CNc1nc(C)c(Cc2ccc(NC(=O)c3ccccc3C(=O)O)cc2)s1 35

====

# % displacement of the labeled ligand listing for each entry below
# Tested on: rat adrenal angiotensin II receptors
# test_details: displacement of radioligand [^125 I]-SIAII specifically bound to rat adrenal angiotensin II receptors
# Type: binding
# recorded_conditions: 1E-7M competing agent, 60 min at 25° C., 0.1 µM
Give the quantity in %, number only.

Below: 3 compounds and their reported % displacement of the labeled ligand.
Cc1nc(C)c(Cc2ccc(NC(=O)c3ccccc3C(=O)O)cc2)s1 [Example 4] : 0
CCCc1nc(CC(=O)OC)sc1Cc1ccc(NC(=O)c2ccccc2S(=O)(=O)O)cc1 [Example 26] : 22
CCOC(=O)CNc1nc(C)c(Cc2ccc(NC(=O)c3ccccc3C(=O)O)cc2)s1 [Example 7] : 0

Pending compound:
Indicate its recorded % displacement of the labeled ligand; the compound in question is CCCc1nc(NC(C)=O)sc1Cc1ccc(NC(=O)c2ccccc2S(=O)(=O)O)cc1 [Example 36] 3
